Reference for the values: paper PMC10891134

System Tested: the molecule itself
Protocol: SEC; analytical size-exclusion chromatography of the purified RutR proteins; elution as dimer; column and buffer not given
Quantity: stoichiometry N
Lab note: record the figure alone, no unit after it.

Using the record for RutR AcK62 (site-specifically K62-acetylated RutR) (natural protein, E. coli, acetyl-lysine at 62, RutR of Escherichia coli; rutR gene as in m1 with an amber stop codon at K62 for acetyl-L-lysine; Same rutR construct as m1 apart from the amber codon; constructs are in Supplementary Data 4; source: E. coli BL21 (DE3), genetic code expansion (acetyl-L-lysine at an amber codon), purified) MTQGAVKTTGKRSRAVSAKKKAILSAALDTFSQFGFHGTRLEQIAELAGVSKTNLLYYFPSKEALYIAVLRQILDIWLAPLKAFREDFAPLAAIKEYIRLKLEVSRDYPQASRLFCMEMLAGAPLLMDELTGDLKALIDEKSALIAGWVKSGKLAPIDPQHLIFMIWASTQHYADFAPQVEAVTGATLRDEVFFNQTVENVQRIIIEGIRPR , report its stoichiometry N. 2
